Catalogue of sequences with associated self-aminoacylation
System: biotinyl-Ile-oxazolone
Assay remarks: self-aminoacylation, catalytic enhancement (BIO) (fold over background); higher = more active; k-Seq, kA / k0A0; sequences stand for … in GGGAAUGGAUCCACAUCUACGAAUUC…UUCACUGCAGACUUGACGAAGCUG
Fewer inactive variants are shown than the library holds.
Just the number, please, no unit attached.

These solved cases illustrate the format of a correct answer.
Chain sequence	self-aminoacylation
AUCACCCUGGUCAUCGUGUGA [Fam2.1 aminoacylation ribozyme variant]	1.81
AAGUUUGCUAAAUGUCGCAAG [Fam3.1 aminoacylation ribozyme variant]	1
CUACUUCAAAAAAUCGGUUUG [Fam1A.1 aminoacylation ribozyme variant]	1.03
AUUACCAUGGGCAUCGAGUGA [Fam2.1 aminoacylation ribozyme variant]	3
AAGUUUGCUAUUAGUCGCUAG [Fam3.1 aminoacylation ribozyme variant]	0.864
CCUCACAUCAAGCAAUCGGUC [Fam1B.1 aminoacylation ribozyme variant]	0.87

IN: Find self-aminoacylation (biotinyl-Ile-oxazolone) for the entry CCACUCUUCACGCAAUCGGUC [Fam1B.1 aminoacylation ribozyme variant]
OUT: 1.08

IN: Repeat with CCACACUUCAAGGAAUUGGUC [Fam1B.1 aminoacylation ribozyme variant]
OUT: 0.901

IN: Repeat with AUUAGCCUGGUCCUCGAGUGA [Fam2.1 aminoacylation ribozyme variant]
OUT: 2.67

IN: Repeat with AAGUUUGCUAAUAGUCGCUAG [Fam3.1 aminoacylation ribozyme variant]
OUT: 0.852

IN: Repeat with AUUACCCUGGUCUUCGAGUCA [Fam2.1 aminoacylation ribozyme variant]
OUT: 0.953

IN: Repeat with AAGUUUGUUAAUUGUCGCAAG [Fam3.1 aminoacylation ribozyme variant]
OUT: 1.09

IN: Repeat with AUUCACCUCGGUCAUCGCGUG [Fam2.2 aminoacylation ribozyme variant]
OUT: 6.77

IN: Repeat with CUACGUCGAACAAUCGGUCUG [Fam1A.1 aminoacylation ribozyme variant]
OUT: 1.7

IN: Repeat with CUAGUUCAAACACUCGGUCUG [Fam1A.1 aminoacylation ribozyme variant]
OUT: 1.35

###

Test system: biotinyl-Phe-oxazolone
Assay remarks: self-aminoacylation, catalytic enhancement (BFO) (fold over background); higher = more active; k-Seq, kA / k0A0; sequences stand for … in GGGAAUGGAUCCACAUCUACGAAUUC…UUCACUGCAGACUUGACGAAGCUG
Fewer inactive variants are shown than the library holds.
Catalogue of sequences with associated self-aminoacylation
Just the number, please, no unit attached.

These solved cases illustrate the format of a correct answer.
Chain sequence	Tested system	self-aminoacylation
AUUCACCUAGGUCAUAGGGUG [Fam2.2 aminoacylation ribozyme variant]	biotinyl-Phe-oxazolone	2.06
AAGUUUGCUAAUACUUGCAAG [Fam3.1 aminoacylation ribozyme variant]	biotinyl-Phe-oxazolone	0.999
CUACAUCAAACAAUCGGGCUG [Fam1A.1 aminoacylation ribozyme variant]	biotinyl-Phe-oxazolone	0.764
UUUCCCCUAGGUCAUCGGGUG [Fam2.2 aminoacylation ribozyme variant]	biotinyl-Phe-oxazolone	96.8
AAGUUUGCUAAUAGGCGGAAG [Fam3.1 aminoacylation ribozyme variant]	biotinyl-Phe-oxazolone	0.916
CUACUUCAAAAACUCGGUCUG [Fam1A.1 aminoacylation ribozyme variant]	biotinyl-Phe-oxazolone	2.19

IN: Field request: self-aminoacylation | item: CGACACUUCAAGCAAACGGUC [Fam1B.1 aminoacylation ribozyme variant]
OUT: 0.979

IN: Repeat with CCACUCUUCAAGUAAUCGGUC [Fam1B.1 aminoacylation ribozyme variant]
OUT: 4.71
